Dear all, I have gathered published pIC50 values for Matrix metalloproteinase-14 (Homo sapiens, UniProt P50281); the list follows.
A value of pIC50 is the negative decimal logarithm of a concentration given in moles per litre.

# query: pIC50 of entry COC(=O)C(C(=O)/C=C/c1ccc(O)cc1)C(=O)/C=C/c1ccc(O)cc1
4.40

Same for O=C(CC(CCn1nnc2ccccc2c1=O)C(=O)O)c1noc2cc(OCC3CC3)ccc12 (racemic)
6.05

Same for COc1ccc(-c2ccc(S(=O)(=O)N(OCCOCCN3CCNCC3)[C@H](CCNC(=O)OCc3ccccc3)C(=O)NO)cc2)cc1
7.57

Same for Cc1ccc(C(CS(=O)(=O)c2ccc(OCc3cc(C)nc4ccccc34)cc2)N(O)C=O)cn1 (centres unmarked)
4.28

Same for Cc1cccn(CC2(c3ccc(Cc4ccccc4)cc3)NC(=O)NC2=O)c1=O (centres unmarked)
4.66

---

Dear all, I have gathered published pIC50 values for UniProt P50281; the list follows.
A value of pIC50 is the negative decimal logarithm of a concentration given in moles per litre.

[[record]]
compound = "Cc1ccc2nnn(C[C@H]3CC[C@@H](C(=O)c4ccc(OCc5ccccc5)cc4)[C@@H]3C(=O)O)c(=O)c2c1 (single isomer, unassigned)"
measured_number = 7.48

[[record]]
compound = "O=C(CCCNC(=O)c1cccc(C(=O)NCCCC(=O)NCC[C@@H](NS(=O)(=O)c2ccc(-c3ccccc3)cc2)C(=O)NO)c1)NCC[C@@H](NS(=O)(=O)c1ccc(-c2ccccc2)cc1)C(=O)NO"
measured_number = 7.51

[[record]]
compound = "C=C1CCC(C(CS(=O)(=O)c2ccc(OCc3cc(C)cc(C)c3)cc2)N(O)C=O)CC1 (stereo not shown)"
measured_number = 4.60


# query: pIC50 of entry Cc1cc(COc2ccc(S(=O)(=O)CC(C=C3CCOCC3)N(O)C=O)cc2)c2ccccc2n1 (stereo not shown)
4.15

Same for Cc1cc(COc2ccc(S(=O)(=O)CC(C3CCC(=NO)CC3)N(O)C=O)cc2)c2ccccc2n1 (stereo not shown)
4.64

Same for CCCCOc1ccc(C(=O)[C@@H]2CC[C@H](Cn3nnc4ccc(C(F)(F)F)cc4c3=O)[C@H]2C(=O)O)cc1 (single isomer, unassigned)
7.02

Same for COc1cc(C)cc(COc2ccc(S(=O)(=O)CC(C3CCC4(CC3)OCCO4)N(O)C=O)cc2)c1 (stereo not shown)
4.40

Same for COc1ccc(Cl)cc1C1(Cn2cccc(C)c2=O)NC(=O)NC1=O (stereo not shown)
4.96

Same for Cc1cc(COc2ccc(S(=O)(=O)CC(CC3CCN(C(=O)c4ccccc4)CC3)N(O)C=O)cc2)c2ccccc2n1 (stereo not shown)
4.52

Same for O=C(CC(CCn1nnc2ccccc2c1=O)C(=O)O)c1noc2cc(OCC3CCCCC3)ccc12 (racemic)
5.26

---

Dear all, I have gathered published IC50 values for Matrix metalloproteinase-14 (Homo sapiens); the list follows.
Class (by IC50) -- lower = under 600 nM, middle = from 600 nM up to 40000 nM, upper = 40000 nM and over

[[record]]
compound = "O=C(O)[C@H]1[C@H](Cn2nnc3ccc(C(F)(F)F)cc3c2=O)CC[C@@H]1C(=O)c1ccc(OCCCC2CCCCC2)cc1 (racemic)"
label = "upper"

[[record]]
compound = "C=C1CCC(C(CS(=O)(=O)c2ccc(OCc3cc(C)nc(C)c3)cc2)N(O)C=O)CC1 (stereo not shown)"
label = "upper"

[[record]]
compound = "O=C(CC(CCn1nnc2ccccc2c1=O)C(=O)O)c1noc2cc(OCCc3ccccc3)ccc12 (racemic)"
label = "middle"

[[record]]
compound = "O=C(O)[C@@H]1[C@@H](Cn2nnc3ccc(C(F)(F)F)cc3c2=O)CC[C@H]1C(=O)c1ccc(OCC2CCCC2)cc1 (single isomer, unassigned)"
label = "lower"

[[record]]
compound = "Cc1cc(COc2ccc(S(=O)(=O)CC(C=C3CCSCC3)N(O)C(N)=O)cc2)c2ccccc2n1 (stereo not shown)"
label = "upper"

[[record]]
compound = "Cc1cc(COc2ccc(S(=O)(=O)CC([C@H]3CSC(=O)N3C)N(O)C=O)cc2)c2ccccc2n1 (stereo partly shown)"
label = "upper"

[[record]]
compound = "CCC(CC)CN1CCC(CC(CS(=O)(=O)c2ccc(OCc3cc(C)nc4ccccc34)cc2)N(O)C=O)CC1 (stereo not shown)"
label = "upper"

[[record]]
compound = "O=C(O)[C@H]1[C@H](Cn2nnc3ccccc3c2=O)CC[C@@H]1C(=O)c1ccc(OCCC2CCCCC2)cc1 (racemic)"
label = "middle"


Would you mind sorting Cc1cc(COc2ccc(S(=O)(=O)CC(C3CCC(=O)CC3)N(O)C=O)cc2)c2ccccc2n1 (stereo not shown) into the appropriate category?
middle

Same for COc1ccc(-c2ccc(S(=O)(=O)N(OC(C)C)[C@H](CCNC(C)=O)C(=O)NO)cc2)cc1
lower

Same for O=C(O)[C@@H]1[C@@H](Cn2nnc3ccc(C(F)(F)F)cc3c2=O)CC[C@H]1C(=O)c1ccc(OCc2ccc(Cl)cc2)cc1 (single isomer, unassigned)
lower

Same for C[C@H](Cc1ccc(C(F)(F)F)cc1)C(=O)NC[C@@]1(C2CC2)NC(=O)NC1=O
middle

Same for Cc1ccc2nnn(C[C@@H]3CC[C@H](C(=O)c4ccc(OCc5cccc(OC(F)(F)F)c5)cc4)[C@H]3C(=O)O)c(=O)c2c1 (racemic)
middle

Same for Cc1cc(COc2ccc(S(=O)(=O)CC(C(F)=C3CCOCC3)N(O)C=O)cc2)c2ccccc2n1 (stereo not shown)
upper

Same for Cc1cc(COc2ccc(S(=O)(=O)CC(CC3CCC(=O)CC3)N(O)C=O)cc2)cc(C)n1 (stereo not shown)
upper

Same for Cc1cc(COc2ccc(S(=O)(=O)CC(CC3CCC(=NO)CC3)N(O)C=O)cc2)c2ccccc2n1 (stereo not shown)
middle

Same for Cc1cccc(COc2ccc(C(=O)[C@@H]3CC[C@H](Cn4nnc5ccc(C)cc5c4=O)[C@H]3C(=O)O)cc2)c1 (single isomer, unassigned)
lower

Same for COCc1cc(COc2ccc(S(=O)(=O)CC(c3ccccc3C)N(O)C=O)cc2)cc(C)n1 (stereo not shown)
upper

Same for O=C(CC(CCn1nnc2ccccc2c1=O)C(=O)O)c1cc2cc(OCCc3ccc(Cl)cc3)ccc2o1 (racemic)
upper

Same for CCCCCSc1ccc(C(=O)[C@H]2CC[C@@H](Cn3nnc4ccc(C(F)(F)F)cc4c3=O)[C@@H]2C(=O)O)cc1 (racemic)
lower

---

Dear all, I have gathered published pIC50 values for Matrix metalloproteinase-14 (Homo sapiens, UniProt P50281); the list follows.
pIC50: −log10 of the molar value.

Example entries begin here.
[[record]]
compound = "CC(=O)N1CCC(C(CS(=O)(=O)c2ccc(OCc3cc(C)nc4ccccc34)cc2)N(O)C=O)CC1 (stereo not drawn)"
observation_type = "pIC50"
result = "< 4.00"

[[record]]
compound = "Cc1cc(COc2ccc(S(=O)(=O)CC(CN3CCN(CC(C)C)CC3)N(O)C=O)cc2)c2ccccc2n1 (stereo not drawn)"
observation_type = "pIC50"
result = "< 4.00"

[[record]]
compound = "CCc1cc(C2CCN(C(=O)[C@@H](C)C[C@@]3(COC)NC(=O)NC3=O)CC2)cc(OC)c1Cl (stereo in doubt)"
observation_type = "pIC50"
result = "< 7.00"

[[record]]
compound = "O=C(CC(CCn1nnc2ccccc2c1=O)C(=O)O)c1cc2cc(OCCCc3ccccc3)ccc2o1 (racemic)"
observation_type = "pIC50"
result = "< 4.40"

[[record]]
compound = "CCCCCCCOc1ccc2oc(C(=O)CC(CCn3nnc4ccccc4c3=O)C(=O)O)cc2c1 (racemic)"
observation_type = "pIC50"
result = "< 4.40"


# query: pIC50 of entry COc1c(Cl)cccc1C1CCN(C(=O)CCC2(C)NC(=O)NC2=O)CC1 (stereo not drawn)
< 7.00

---

Dear all, I have gathered published IC50 values for Matrix metalloproteinase-14 (Homo sapiens); the list follows.
Could you give me the number in nM? Just the number is fine.

[[record]]
compound = "O=C(O)[C@H]1[C@H](Cn2nnc3ccccc3c2=O)CC[C@@H]1C(=O)c1ccc(OCc2ccccc2)cc1"
observation_type = "IC50"
readout_unit = "nM"
measured_number = 15


# query: IC50 of entry CCC(CC)C(=O)N1CCC(=CC(CS(=O)(=O)c2ccc(OCc3cc(C)nc4ccccc34)cc2)N(O)C=O)CC1 (centres unmarked)
38000

Same for O=C(O)[C@@H]1[C@@H](Cn2nnc3ccc(C(F)(F)F)cc3c2=O)CC[C@H]1C(=O)c1ccc(OCCC2CCCCC2)cc1 (single isomer, unassigned)
3600

Same for O=C(CC(CCn1nnc2ccccc2c1=O)C(=O)O)c1cc2cc(OCc3ccc(F)cc3)ccc2o1 (single isomer, unassigned; (+))
15000

---

Dear all, I have gathered published pIC50 values for UniProt P50281; the list follows.
pIC50: −log10 of the molar value.

Example entries begin here.
[[record]]
molecule = "O=C(CC(CCn1nnc2ccccc2c1=O)C(=O)O)c1cc2ccc(OCCc3ccccc3)cc2o1 (racemic)"
observation_type = "pIC50"
result = "< 4.40"

[[record]]
molecule = "CCc1cc(N2CCN(C(=O)CC[C@@]3(C)NC(=O)NC3=O)C[C@@H]2C)ccc1Cl"
observation_type = "pIC50"
result = "< 7.00"

[[record]]
molecule = "COc1cc(N2CCN(C(=O)CC[C@@]3(C)NC(=O)NC3=O)C[C@@H]2C)cc(Cl)c1F"
observation_type = "pIC50"
result = "< 7.00"

[[record]]
molecule = "COc1cc(N2CCN(C(=O)CCC3(C)NC(=O)NC3=O)C[C@@H]2C)ccc1Cl (some centres unmarked)"
observation_type = "pIC50"
result = "< 7.00"


Kindly consider the entry below.
Reported pIC50 for UniProt P50281, given Cc1cc(COc2ccc(S(=O)(=O)CC(N(O)C=O)C3(C)CCC(O)CC3)cc2)c2ccccc2n1 (centres unmarked) ?
< 4.00
